- experiment: protein stability index of a GFP-peptide fusion (yeast GPS) (PSI 1-4); higher = more stable; sorted into four equal gates, so the index is relative within each strain
- settings: san1∆

# biopolymer_sequence, protein stability index
measured = [
    ("VDSRTKIRMLTQAAEFL [IRR1]", 1.78),
    ("CGHRILLKARTKRLVQF [RPC10]", 1.68),
    ("LQKQMGIGSLTDLMSIV [RPC34]", 2.68),
    ("PSPISHVAEIRSALEKG [RPB2]", 1.68),
    ("MVQQLSLFGSIGDDGYD [SRB5]", 3.16),
    ("LPAYSGEIGDFFSSDWR [POP1]", 3.24),
    ("QRKNIQSLELMIYDDAH [BRR2]", 2.54),
    ("HRDAYSGGSVNLYHVTE [PRE2]", 3),
    ("SLLESGSEILGDLKLQV [RPO21]", 2.53),
    ("KTDEVIILGTNLYDGAE [BRR2]", 3.06),
    ("LSEYDAIQKKDNKDKEG [YOR098C/NUP1]", 3.38),
    ("LIQSYSLLDKPDEAIEK [FAS1]", 2.14),
    ("FEAQIDSVEFIFQAKRN [RPN10]", 2.45),
    ("SCIAVMAGLMHFKKPDI [RRP45]", 1.77),
    ("FSFGAATPSAKEASQED [YLR335W/NUP2]", 3.12),
    ("LQELIVNGPNVHPGANY [RPO31]", 2.99),
    ("INVETVYDIMALEDEER [BRR2]", 2.73),
    ("HELITNIGETAGVVQDI [RPB9]", 3.27),
    ("STPDQRKRVYNIKFLSK [ESC2]", 2.81),
    ("ELFDILSTSEDVSIEEL [IRR1]", 2.6),
    ("IDLLWKGKTPKNAAESS [PRP28]", 2.91),
    ("NNDQKRQQAYKTAQTLD [YJL041W/NSP1]", 3.33),
    ("SSASPSALTSPTDSSKI [SIR3]", 2.87),
    ("KSKILRKVVFPFQLDVA [UBP6]", 2.65),
    ("LRNKLIESNKLAGVLYE [RRP6]", 2.79),
    ("VNCFHEDTELYQELIKN [YJL039C/NUP192]", 2.83),
    ("YYNEISRDLDISSSTQC [POP6]", 2.25),
    ("DALKVVLRTALVHDGLA [RPS12]", 2.72),
    ("KALPIRRDDEVLVVRGS [RPL26A]", 3.23),
    ("FQITLSSDDLQNCWSLI [SSN8]", 2.22),
]

----------
- experiment: protein stability index of a GFP-peptide fusion (yeast GPS) (PSI 1-4); higher = more stable; sorted into four equal gates, so the index is relative within each strain
- settings: san1∆

# biopolymer_sequence, protein stability index
measured = [
    ("NIATQQNMQQSLQQMQH [GAL11]", 2.68),
    ("FVSESPSFVKSGKLRDY [ISW2]", 2.28),
    ("GRTPNISNGTINIQKKL [SIR4]", 2.58),
    ("VLLATWNLEKWREIIEK [IRR1]", 2.92),
    ("LSEDELRELDVELIESK [SMC4]", 3.4),
    ("LSLQRANVEILAVEDKP [CSL4]", 1.67),
    ("RVRTDDSVLLNRGNKKR [YML031W/NDC1]", 3.08),
    ("PNETSEIAQANSRNAIR [RPL19A]", 2.54),
]
